target: Dual specificity protein kinase CLK2 (Homo sapiens) (UniProt P49760); conditions: at 1 µM;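 note: reported values are mean percent inhibition of CLK2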
Sequence (P49760 whole entry, looked up): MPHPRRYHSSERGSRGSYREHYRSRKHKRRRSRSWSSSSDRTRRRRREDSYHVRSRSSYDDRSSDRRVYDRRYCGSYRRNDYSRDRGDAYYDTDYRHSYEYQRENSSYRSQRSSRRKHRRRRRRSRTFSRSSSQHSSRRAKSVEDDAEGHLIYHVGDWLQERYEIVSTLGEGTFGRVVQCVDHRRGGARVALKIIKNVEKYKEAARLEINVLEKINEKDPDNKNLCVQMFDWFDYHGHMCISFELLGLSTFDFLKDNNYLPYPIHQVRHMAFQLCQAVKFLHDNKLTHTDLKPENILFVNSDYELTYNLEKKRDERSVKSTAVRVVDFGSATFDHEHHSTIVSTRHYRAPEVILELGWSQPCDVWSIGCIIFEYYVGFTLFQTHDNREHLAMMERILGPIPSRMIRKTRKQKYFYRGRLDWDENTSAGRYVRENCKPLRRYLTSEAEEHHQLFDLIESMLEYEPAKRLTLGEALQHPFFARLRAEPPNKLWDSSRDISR
MEASURE: inhibition (%)
Report as a plain number; the unit % is understood.

Reference set (3 entries):
- INPUT SMILES: "O=C1NC(=O)C(c2ccccc2Cl)=C1Nc1cccc(O)c1"
  TARGET SYSTEM: "Dual specificity protein kinase CLK2 (Homo sapiens) (UniProt P49760)"
  inhibition / %: 36.9
- INPUT SMILES: "COC(=O)Nc1nc2cc(Oc3ccc(NC(=O)Nc4cccc(C(=O)O)c4)cc3)ccc2[nH]1"
  TARGET SYSTEM: "Dual specificity protein kinase CLK2 (Homo sapiens) (UniProt P49760)"
  inhibition / %: 0.77
- INPUT SMILES: "CCn1c(-c2nonc2N)nc2ccncc21"
  TARGET SYSTEM: "Dual specificity protein kinase CLK2 (Homo sapiens) (UniProt P49760)"
  inhibition / %: 3.92

Task: What value of inhibition has been reported for the following compound? COc1ccc(-c2ccncc2)cc1C(N)=O
Result: 2.96

Task: Next compound: Cc1nnc(-c2ccc(C)c(-c3ccc(C(=O)Nc4cccc(C#N)c4)cc3)c2)o1
Result: -0.94

Task: Would you kindly repeat that for CS(=O)(=O)CCN(CC#N)Cc1ccc(-c2ccc3ncnc(Nc4ccc(OCc5cccc(F)c5)c(Cl)c4)c3c2)o1 ?
Result: 0.64

Task: Here is the next compound: CC(C)=Cc1cccc2c1/C(=N/Nc1ccc(S(N)(=O)=O)cc1)C(=O)N2
Result: 7.38

Task: Same question for COc1ccccc1Nc1ncc(-c2ccccc2)o1 please.
Result: 0.86

Task: Please answer likewise for [O-][S+]1CCN(Cc2ccc(-c3ccc4ncnc(Nc5ccc(OCc6ccccc6)c(F)c5)c4c3)o2)CC1
Result: 0.69
